Below, each entry is listed with its recorded pKi.
testedTarget: apamine binding sites (bovine cerebral membrane, hippocampus)
experimentSummary: Binding of ^125 I-apamine to bovine cerebral membrane
testSettings: 30 pM ^125 I-apamine, calf hippocampus membranes, pH 7.4, 60 min on ice
pKi is defined as minus the log10 of a concentration measured in mol/L.

CCN(CC)c1nc(NCC2CCCC(CNc3nc(N(CC)CC)nc4ccccc34)C2)c2ccccc2n1 (mixture of isomers) [Example 1] : 6.80

Here is another molecule to look at.
stdin: Query for apamine binding sites (bovine cerebral membrane, hippocampus): what pKi does the record show for CCN(CC)c1nc(NCCCCCNc2nc(N(CC)CC)nc3ccccc23)c2ccccc2n1 [Example 2] ?
stdout: 8.10
